Data origin, for the record: paper PMC9482650

- studyTarget: MAGI1_2, Q96QZ7
- Sequence (Q96QZ7 456-580): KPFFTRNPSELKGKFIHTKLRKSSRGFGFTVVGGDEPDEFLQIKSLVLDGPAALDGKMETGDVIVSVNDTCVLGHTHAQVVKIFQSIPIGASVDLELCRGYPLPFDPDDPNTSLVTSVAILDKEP
- experimentSummary: holdup assay
- Parameters: key: below the threshold = too weak to quantify, mostly under pKd 3.1 to 4
- testContext: plain residues with an end cap or a label only (N-terminal biotin on a linker: ado-ado)

binder	pKd
NNMAFETTHF [SLC5A12, Q1EHB4]	below the threshold
KLQNPNQSVV [TYRP1, P17643]	below the threshold
IGHEDLETAV [DGKI, O75912]	below the threshold
PDSYHRRDFW [U2AF2, P26368]	below the threshold
